Data provenance: ChEMBL document CHEMBL4177744

Each item that follows carries a reported activity at 20 min, 5 µM.
# assaySystem: UniProt:P08684
# Sequence (P08684 whole entry): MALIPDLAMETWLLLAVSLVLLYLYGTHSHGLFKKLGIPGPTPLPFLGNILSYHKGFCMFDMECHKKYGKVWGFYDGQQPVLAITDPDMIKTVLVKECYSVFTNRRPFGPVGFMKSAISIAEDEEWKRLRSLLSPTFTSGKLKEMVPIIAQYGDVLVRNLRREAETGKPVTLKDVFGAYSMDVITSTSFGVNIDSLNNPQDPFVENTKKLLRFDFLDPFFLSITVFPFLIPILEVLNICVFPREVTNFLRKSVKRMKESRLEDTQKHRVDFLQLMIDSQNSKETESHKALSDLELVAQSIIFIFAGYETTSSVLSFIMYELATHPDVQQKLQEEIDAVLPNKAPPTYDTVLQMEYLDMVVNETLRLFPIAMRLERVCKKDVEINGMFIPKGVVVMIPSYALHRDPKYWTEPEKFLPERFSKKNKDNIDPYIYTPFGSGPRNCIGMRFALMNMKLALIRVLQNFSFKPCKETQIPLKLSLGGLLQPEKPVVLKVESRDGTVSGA
# protocolText: Inhibition of CYP3A4 in human liver microsomes assessed as residual activity at 5 uM using midazolam as substrate after 20 mins in presence of NADPH by LC-MS/MS analysis relative to control
# Format: ADME
# conditionsUsed: probe midazolam, read-out: Activity
Response body: numeric value in %, unit text excluded.

Value wanted: activity at 20 min, 5 µM (UniProt:P08684) of entry CCN1Cc2cc(-c3c(C)nc4c(OCc5ccccc5C)cccn34)ccc2C1=O.Cl 85

New cases:
Value wanted: activity at 20 min, 5 µM (UniProt:P08684) of entry COc1cc(/C=C2\CCCN([C@@H](C)c3ccc(F)cc3)C2=O)ccc1-n1cnc(C)c1 40
